Hey, just so you know, these numbers are from PubChem BioAssay (NCI).

Assay: NCI Yeast Anticancer Drug Screen. Data for the bub3 strain (AID 167)
Settings: S. cerevisiae bub3 mutant strain, at 11.0 µM, stronger effect = higher value
The panel holds about 79,000 compounds, 15% with a hit somewhere; the sample as a whole holds those more often.
Attribute: growth inhibition
Provide the reading as a plain figure in %.

C=C(C(=C)n1nnc(C(=O)OC)c1C(=O)OC)n1nnc(C(=O)OC)c1C(=O)OC :: -3

The record that follows has no growth inhibition shown yet.
Ask | Reported growth inhibition, compound O=C(Nc1ccc(Cl)cc1)Nc1nnc2nc(C(C(=O)c3cccc([N+](=O)[O-])c3Cl)c3nc4nnc(NC(=O)Nc5ccc(Cl)cc5)n4[nH]c3=O)c(=O)[nH]n12 : ____
Reply | -7
